Each recorded value in this set is attributed to PubChem BioAssay (NCI).

Record form. Attribute: growth. Fill in for each entry.
Test system: OVCAR-3 ovarian
Assay: NCI-60 one-dose screen, 48 h (100 = growth as untreated, 0 = no growth, -100 = all killed)
Details: 10 µM unless noted
About 83,000 compounds went through this panel and 20% of them were active in at least one assay; those are over-represented in the sample as a whole.
Record the value in %, omitting the unit from your answer.

Field request: growth | item: `CCc1[nH]nc(-c2ccc(OC)cc2)c1-c1ccccc1OCCN(CC)CC`
104

Please do the same for `COc1cc2c(-c3nc4cc(Cl)c(F)cc4s3)cc(=O)oc2c(C)c1OC` as well.
-98.6

Please do the same for `NC(N)=NN=c1c(=O)c2ccccc2c1=O` as well.
80.6

Please do the same for `C=C(C[C@@](O)(C(=O)Oc1ccccc1)C(=O)C1CCCCC1)c1ccccc1` as well.
106

Please do the same for `O=C1N(C2CCCCC2)C(=O)N1C1CCCCC1` as well.
59.7

Please do the same for `CC[C@H](C)C(=O)O[C@H]1C[C@@H](C)C=C2C=C[C@H](C)[C@H](CC[C@@H]3C[C@@H](O)CC(=O)O3)[C@H]21` as well.
102

Please do the same for `C/C(=N/N=C(N)N)c1ccc(N)cc1` as well.
93.1

Please do the same for CC(=O)O[C@H]1C(=O)[C@@]2(C)C([C@H](OC(=O)c3ccccc3)[C@]3(O)C[C@H](OC(=O)[C@H](O)[C@@H](NC(=O)c4ccccc4)c4ccccc4)C(C)=C1C3(C)C)[C@]1(OC(C)=O)CO[C@@H]1C[C@@H]2O (some centres undefined) as well.
-9.4

Please do the same for `O=C(Nc1ccc(OCc2nnc(-c3ccccc3)o2)c(F)c1)Nc1ccc(Cl)c(C(F)(F)F)c1` as well.
15.4

* * *

Tested on: NCI-H226 lung
Assay: NCI-60 one-dose screen, 48 h (100 = growth as untreated, 0 = no growth, -100 = all killed)
Settings: 10 µM unless noted
This is part of a sample that, as a whole, favours compounds with a hit. Of some 83,000 tested, about 20% had one in any assay.
Record form. Attribute: growth. Fill in for each entry.
Record the value in %, omitting the unit from your answer.

Field request: growth | item: `c1ccc(Nc2nnc(-c3cc(-c4cccnc4)n(-c4ccccc4)n3)s2)cc1`
99.8

Please do the same for `Fc1ccc(-c2nc(Nc3ccc(-c4nc5ccccc5[nH]4)cc3)nc(N3CCOCC3)n2)cc1` as well.
-64.5

Please do the same for `O=C(/C(=C/c1ccc([N+](=O)[O-])cc1)c1ccccc1)c1ccccc1` as well.
56.6

Please do the same for `CCOC(=O)c1c(C)c(C(=O)OCC)n(C)c1C` as well.
66.6

Please do the same for `NC(=O)c1ccccc1NC(=O)c1ccccc1Cl` as well.
105

Please do the same for CN(CCOc1ccc(CC2SC(=O)NC2=O)cc1)c1ccccn1 (stereo unspecified) as well.
98.9

Please do the same for `O[C@@H]1Cc2ccc3ccccc3c2N[C@H](c2ccoc2)C1` as well.
93.5

Please do the same for `Cc1c(C(N)=O)sc2c1c(=O)n(Cc1ccccc1)c1nnc(S(=O)(=O)CC(=O)Nc3ccc(Cl)cc3)n21` as well.
-4.71

Please do the same for `O=C(CN1CCCCC1)Sc1nnc2sc3ccccc3n12` as well.
84.9

Please do the same for `CCOC(=O)c1cc(-c2cccnc2)nc2c(Cl)cc(Cl)cc12` as well.
98.9

Please do the same for `CCN1CCN(c2cc(-c3cn[nH]c3-c3cc(C)cc(OC)c3)nc(-c3cccnc3)n2)CC1` as well.
99.7

Please do the same for `O=C(/C=C/c1ccc(O)c(O)c1)N1CCN(c2ccc(Cl)cc2)CC1` as well.
63.8

Please do the same for `CC(=O)n1c2ccccc2c2ccccc21` as well.
115

Please do the same for `COc1ccc(-c2cc(C(=O)Nc3nc4cc(C)c(C)cc4s3)nc3cc(-c4ccccc4)nn23)cc1OC` as well.
113

Please do the same for `CCN(CC)CCNc1ccc(Cl)cc1Cl` as well.
108

Please do the same for `COc1cc(C(=O)/C=C/c2cccnc2Nc2ccccc2)cc(OC)c1OC` as well.
-96.2

Please do the same for `Fc1ccc(-c2nnc(-c3c(-c4ccc(F)cc4)nc4ncccn34)o2)cc1` as well.
113

Please do the same for `COc1cccc2c1O/C(=C\c1c([N+](=O)[O-])ncn1C)C2=O` as well.
96.9

Please do the same for `N#Cc1c(N2CCOCC2)nc2sc3cc(Cl)ccc3n2c1=N` as well.
88.3

Please do the same for `Cc1cc(CC(=O)O)n(C)c1C(=O)c1ccc(Cl)cc1` as well.
95.2

Please do the same for COc1ccc(C2CC(c3cccc(Nc4ccnc5cc(Cl)ccc45)c3)=NN2C=O)cc1 (stereo unspecified) as well.
46.3

Please do the same for `NS(=O)(=O)c1ccc(NC2=C(Cl)C(=O)c3ccccc3C2=O)cc1` as well.
61.9

Please do the same for `Clc1nc(Cl)c2ncn(-c3ccccc3)c2n1` as well.
93.4

Please do the same for `COc1ccc(Nc2ccnc(NCCCNc3ccnc4cc(Cl)ccc34)n2)cc1` as well.
69.6

Please do the same for CCC1(c2ccccc2)Oc2ccccc2-n2c(C#N)c3ccccc3c2C1=O (stereo unspecified) as well.
110

Please do the same for `OCCOc1c(Cl)cc(Cl)cc1Cl` as well.
111

Please do the same for `CC[C@@H]1OC(=O)[C@H](C)[C@@H](O[C@H]2C[C@@](C)(OC)[C@@H](O)[C@H](C)O2)[C@H](C)[C@@H](O[C@@H]2O[C@H](C)C[C@H](N(C)C)[C@H]2O)[C@](C)(O)C[C@@H](C)[C@@H]2N[C@@H](COCCOC)O[C@H]([C@H]2C)[C@]1(C)O` as well.
110

Please do the same for `O=C(C=C=Nc1ccccc1)C(=O)N=C=Cc1ccccc1` as well.
67.7

Please do the same for Nc1nc2ncc(CCNc3ccc(C(=O)NC(CCC(=O)O)C(=O)O)cc3)nc2c(=O)[nH]1 (stereo unspecified) as well.
102

Please do the same for `COc1cc(Oc2cc(-c3cccnc3)ccc2NC(=O)Nc2ccc(F)cc2F)cc(OC)c1OC` as well.
97

Please do the same for CCCCC1Nc2nc(SC)n(C)c(=O)c2CN(Cc2ccccc2)C1=O (stereo unspecified) as well.
84.9

Please do the same for `C=Cc1nn2c(CCC(=O)c3nc4ccccc4[nH]3)nnc2s1` as well.
97.5

Please do the same for `COc1cc(NC(=O)c2cc3ccccc3cc2O)c(OC)cc1Cl` as well.
13.5

Please do the same for `COC(=O)CCC1=C(C)/C(=C/c2[nH]c(-c3ccc[nH]3)cc2OC)N=C1C` as well.
23.9

Please do the same for `COc1ccc(/C(=C2\O[C@@H]([C@H](O)CO)[C@H]3OC(C)(C)O[C@@H]23)c2cc(OC)c(OC)c(OC)c2)cc1O` as well.
110

Please do the same for `O=C1Nc2ccc(F)cc2/C1=C/c1nc(-c2ccc(F)cc2)n2ccccc12` as well.
110

Please do the same for `Cc1cc(NCCCNc2ccnc3cc(Cl)ccc23)nc(N2CCN(C)CC2)n1` as well.
75.3

Please do the same for `O=C(CCc1nnc(Cn2ccnc2)o1)c1nc2ccccc2[nH]1` as well.
115

Please do the same for `Nc1nc(SCC2(CCl)COC2)c2[nH]cnc2n1` as well.
100

Please do the same for CC(=O)Oc1ccc(C2OC(c3ccc4ccccc4c3OC(C)=O)=NN2C(C)=O)c(OC(C)=O)c1 (stereo unspecified) as well.
15.7

Please do the same for CCC(C)CC(C)C(=O)c1c(O)ccn(O)c1=O (stereo unspecified) as well.
95.8
